Every entry's value here was drawn from patent US9079905B2.

ASSAY SYSTEM: human PDE9A2 (Homo sapiens, UniProt O76083)
Construct: made in house; host or cells: Sf9 insect cells (infected; crude lysate used as enzyme source)
Sequence (O76083 1-533 isoform O76083-2): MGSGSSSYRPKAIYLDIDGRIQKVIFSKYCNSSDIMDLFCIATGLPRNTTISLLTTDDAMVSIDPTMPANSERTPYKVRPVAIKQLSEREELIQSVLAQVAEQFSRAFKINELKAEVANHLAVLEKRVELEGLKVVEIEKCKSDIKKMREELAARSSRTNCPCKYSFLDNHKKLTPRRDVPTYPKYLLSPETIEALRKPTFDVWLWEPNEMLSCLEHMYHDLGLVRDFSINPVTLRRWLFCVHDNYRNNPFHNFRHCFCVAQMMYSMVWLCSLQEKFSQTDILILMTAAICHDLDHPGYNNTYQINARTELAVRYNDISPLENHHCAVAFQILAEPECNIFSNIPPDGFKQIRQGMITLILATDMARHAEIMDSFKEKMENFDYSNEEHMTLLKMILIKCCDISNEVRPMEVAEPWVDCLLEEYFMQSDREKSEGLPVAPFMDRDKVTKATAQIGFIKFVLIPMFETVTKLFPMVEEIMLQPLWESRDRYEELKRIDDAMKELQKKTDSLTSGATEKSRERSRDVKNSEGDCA
PROTOCOL: PDE9A2 enzymatic activity assay (scintillation proximity assay)
Assay type: biochemical
MEASUREMENT CONTEXT: specific IC50 value is within the given range
PROPERTY MEASURED: IC50

Prompt: Please report the recorded IC50 for O=C(Cc1ccccc1Cc1nc2c(cnn2C2CCC(F)(F)CC2)c(=O)[nH]1)N1CCCCC1 [Example 81] .
Completion: 0.101 to 1.5 µM

Prompt: Subsequent entry: N#Cc1ccccc1Cc1nc2c(cnn2C2CCC(F)(F)CC2)c(=O)[nH]1 [Example 31]
Completion: 0.001 to 0.1 µM

Prompt: Subsequent entry: CC1(C)CC(Cc2nc3c(cnn3C3CCC(F)(F)CC3)c(=O)[nH]2)CO1 (racemic) [Example 52]
Completion: 0.001 to 0.1 µM

Prompt: Subsequent entry: O=c1[nH]c(Cc2ccccc2-c2ccccn2)nc2c1cnn2C1CCC(F)(F)CC1 [Example 91]
Completion: 0.001 to 0.1 µM

Prompt: Subsequent entry: N#Cc1ccc(-c2ccccc2Cc2nc3c(cnn3C3CCC(F)(F)CC3)c(=O)[nH]2)cn1 [Example 54]
Completion: 0.001 to 0.1 µM

----------
The molecules listed here are annotated with their IC50.
ASSAY SYSTEM: human PDE9A2 (Homo sapiens, UniProt O76083)
Construct: crude lysate used as enzyme source)
PROTOCOL: PDE9A2 enzymatic activity assay (scintillation proximity assay)
MEASUREMENT CONTEXT: specific IC50 value is within the given range

| MOLECULE | READING |
| --- | --- |
| O=c1[nH]c(CCCC(F)(F)F)nc2c1cnn2C1CCC(F)(F)CC1 | 1 to 100 nM |
| COc1cccc(Cl)c1Cc1nc2c(cnn2C2CCC(F)(F)CC2)c(=O)[nH]1 | 1 to 100 nM |

Next, consider the following molecule.
Prompt: Please report the recorded IC50 for `COc1cc(-c2ccccc2Cc2nc3c(cnn3C3CCC(F)(F)CC3)c(=O)[nH]2)ccn1` .
Completion: 1 to 100 nM

----------
ASSAY SYSTEM: human PDE9A2 (Homo sapiens, UniProt O76083)
Construct: crude lysate used as enzyme source)
PROTOCOL: PDE9A2 enzymatic activity assay (scintillation proximity assay)
MEASUREMENT CONTEXT: specific IC50 value is within the given range
PROPERTY MEASURED: IC50

| MOLECULE | IC50 |
| --- | --- |
| O=c1[nH]c(Cc2cc(F)ccc2Br)nc2c1cnn2C1CCC(F)(F)CC1 | 1 to 100 nM |
| Cc1nc(-c2ccccc2Cc2nc3c(cnn3C3CCC(F)(F)CC3)c(=O)[nH]2)n[nH]1 | 1 to 100 nM |
| COc1ccc(F)cc1Cc1nc2c(cnn2C2CCC(F)(F)CC2)c(=O)[nH]1 | 1 to 100 nM |
| O=c1[nH]c(C(F)c2ccccc2-c2ccncc2)nc2c1cnn2C1CCC(F)(F)CC1 (racemic) | 101 to 1500 nM |

Next, consider the following molecule.
Prompt: What measured IC50 is associated with `O=c1[nH]c(CC2CCCC2)nc2c1cnn2C1CCC(F)(F)CC1` on human PDE9A2 (Homo sapiens, UniProt O76083)?
Completion: 1 to 100 nM
